# ASSAY OVERVIEW: in vitro
# STUDY CONDITIONS: human, hela cells, % viability
RECORDED ENDPOINT: viability at 28.5 h, 10 µM (%)

> print(dat)
                                   compound           recorded.endpoint  observed.measurement
1  CC(=O)N(C)c1ncc(Br)cc1C(=O)NCCc1ccccc1 [CBK076543]  viability at 28.5 h, 10 µM                  93.8
2  O=C(N[C@H]1COC(=O)N1)OCc1ccccc1 [CBK007606]  viability at 28.5 h, 10 µM                   114
3  Nc1ccccc1SC(CC(=O)c1ccccc1)c1ccc2c(c1)OCO2 (stereo not drawn) [CBK074823]  viability at 28.5 h, 10 µM                  80.2
4  COc1ccc(-c2ccc(OC3CCNCC3)cc2)c(OC)c1 [CBK093816T]  viability at 28.5 h, 10 µM                  91.2
5  O=c1oc2ccccc2c(NCCN2CCCCC2)c1[N+](=O)[O-] [CBK218805]  viability at 28.5 h, 10 µM                    92
6  Nc1nonc1-n1nnc(CN2CCCCC2)c1CN1CCCCC1 [CBK270636]  viability at 28.5 h, 10 µM                  82.3
7  COc1ccc(CN(Cc2ccsc2)[C@@H]2COC[C@H]2c2ccc(F)cc2)cc1 [CBK286485]  viability at 28.5 h, 10 µM                   112
8  CN1CCN(S(=O)(=O)c2ccc(Oc3ccccc3)cc2)CC1 [CBK062430]  viability at 28.5 h, 10 µM                   113
9  O=C(Oc1cccc(-c2cnc3ccccc3n2)c1)c1ccc(S(=O)(=O)N2CCCCC2)cc1 [CBK267785]  viability at 28.5 h, 10 µM                   104

###

# ASSAY OVERVIEW: in vitro
# STUDY CONDITIONS: human, hela cells, % viability
RECORDED ENDPOINT: viability at 28.5 h, 10 µM (%)

> print(dat)
                                    compound  unit.tag  observed.measurement
 1  NS(=O)(=O)c1ccc(NC(=O)CN2CCN(c3cccc(C(F)(F)F)c3)CC2)cc1         %                   105
 2  Cc1cc(C(C)(C)C)cc(S(=O)(=O)Nc2ccc(O)c(C(=O)O)c2)c1C         %                   101
 3       CN(C)c1nc2c(c(-c3cncc(N)c3)n1)CCCC2         %                   105
 4   O=C(NC1(c2ccc(F)cc2)CCCC1)c1cnn2cccnc12         %                  97.4
 5        O=C(CCC(=O)Nc1ccccc1)N/N=C/c1ccco1         %                   108
 6      Cc1c(C(=O)NCCCCn2ccnc2)[nH]c2ccccc12         %                  94.3
 7         O=C(N/N=C/c1ccc(O)c(I)c1)c1ccncc1         %                  86.2
 8  COC(=O)CCC(=O)N1CCc2c([nH]c3ccccc23)C12CCN(CCCc1ccccc1OC)C2 (centres unmarked)         %                  93.9
 9  O=C(CC1Sc2ccccc2NC1=O)Nc1ccc([N+](=O)[O-])c(F)c1 (centres unmarked)         %                  85.5
10       Nc1ncccc1C(=O)OCc1ccc(-c2ccccc2)cc1         %                  94.2
11  CC(=O)N(C)[C@H]1CC[C@]2(CC1)CNC(=O)c1ccccc1O2         %                   101
12          O=C1NCCCC12CCN(Cc1cccc(F)c1F)CC2         %                  91.8
13  O=C(Nc1ccccc1[N+](=O)[O-])c1cc(S(=O)(=O)Nc2ccccn2)ccc1Cl         %                  87.8
14  COc1ccc(S(=O)(=O)N(C)CC(=O)N2CCOCC2)cc1C         %                  95.8
15  CCOC(=O)c1cnn(C2CCCN(Cc3c(C)n[nH]c3C)C2)c1 (centres unmarked)         %                  88.6
16                  COc1ccc(C(=O)N(C)C)cc1OC         %                   115
17  CC(NC(=O)CSc1ncc(-c2ccccc2)nn1)c1ccccc1 (centres unmarked)         %                  85.7
18  CC(C)(CO)CNC(=O)c1cnc(-c2ccccc2)c(-c2ccncc2)c1         %                   111
19  COc1ccc([N+](=O)[O-])cc1CSc1nnc(-c2ccco2)n1C         %                  89.3
20  COCC(=O)N1C[C@@H](c2ccc(F)c(F)c2)[C@@]2(CCCC(=O)N2)C1         %                   103

###

# ASSAY OVERVIEW: in vitro
# Set-up: Viability of infected HeLa host cells, resazurin conversion, bulk resorufin fluorescence relative to DMSO
# STUDY CONDITIONS: human, hela cells; bulk resorufin, mean of 2
RECORDED ENDPOINT: viability at 28.5 h, 10 µM (%)

> print(dat)
                                    compound           recorded.endpoint  unit.tag  observed.measurement
 1  CC(C)(C)c1ccc(N(C2CCNCC2)S(=O)(=O)c2cccc(C(F)(F)F)c2)cc1 [CBK165056T]  viability at 28.5 h, 10 µM         %                  45.6
 2  CC(=O)NC[C@H]1CN(c2ccc(-c3nnc(C(C)O)s3)c(F)c2)C(=O)O1 (stereo partly drawn)  viability at 28.5 h, 10 µM         %                  90.8
 3  Fc1cc(CN2CCC3(CC2)OCCc2c3[nH]c3ccc(Br)cc23)cc(F)c1F  viability at 28.5 h, 10 µM         %                  90.4
 4  c1c(C2CC2)[nH]c2nc(N3CCCC3)nc(N3CCCC3)c12 [CBK016707G]  viability at 28.5 h, 10 µM         %                  86.9
 5  CC(=O)Nc1ccc(-c2cccc(COC3CCN(C(=O)c4ccc(OC(C)C)cc4)CC3)c2)cc1  viability at 28.5 h, 10 µM         %                  93.9
 6  CCc1nnc(NS(=O)(=O)c2ccc(NC(=S)Nc3ccc(F)cc3)cc2)s1  viability at 28.5 h, 10 µM         %                  93.2
 7  Cc1ccc(S(=O)(=O)Nc2ccc(S(=O)(=O)Nc3nccs3)cc2)c([N+](=O)[O-])c1  viability at 28.5 h, 10 µM         %                  98.2
 8    Cc1ccc2nsnc2c1S(=O)(=O)Nc1cccc2cccnc12  viability at 28.5 h, 10 µM         %                  60.9
 9  Cc1cc(NS(=O)(=O)c2ccc(Nc3nc(-c4ccccn4)cs3)cc2)no1 [CBK263302B]  viability at 28.5 h, 10 µM         %                  99.8
10  CC(NC(=O)N(Cc1ccccc1C(F)(F)F)CC(C)(C)CN)c1cccc2ccccc12 (stereo not drawn) [CBK002422C]  viability at 28.5 h, 10 µM         %                   101
11  COc1ccc2[nH]cc(CCNC(=O)c3ccc([N+](=O)[O-])c(C)c3)c2c1  viability at 28.5 h, 10 µM         %                  84.5
12        Cn1c(=O)c2c(ncn2Cc2ccccc2)n(C)c1=O  viability at 28.5 h, 10 µM         %                   109
13  CCN1CCN(c2cc3c(cc2F)c(=O)c(C(=O)NCCOC)cn3C2CC2)CC1  viability at 28.5 h, 10 µM         %                  88.7
14  COc1cc(OC)c(CCNC2CCCc3c2cnn3C)c(OC)c1 (stereo not drawn)  viability at 28.5 h, 10 µM         %                  93.8
15  O=S(=O)(Nc1ccc(C(F)(F)F)cc1Cl)c1cc(Br)c(Cl)s1  viability at 28.5 h, 10 µM         %                  88.2
16   O=C(NCCCn1ccnc1)N1CCN(Cc2ccc(Cl)cc2)CC1  viability at 28.5 h, 10 µM         %                  89.5
17   CCc1cc(-c2n[nH]cc2-c2nc(C)cs2)c(O)cc1OC  viability at 28.5 h, 10 µM         %                  94.8
18  NC(=O)c1[nH]nc(C2OC(CO)C(O)C2O)c1O (stereo not drawn)  viability at 28.5 h, 10 µM         %                  93.8
